The origin of these recorded values is paper PMC8159961.

Catalogue of 5-HT7 % Inhibition by plate position readings, one per entry.
target: human 5-HT7b receptor (Homo sapiens); construct: expressed in transfected cells; test: GPCR radioligand binding assay, [3H]-5-CT displacement, HEK293 membranes; settings: 10 µM
Sequence (P34969 1-432): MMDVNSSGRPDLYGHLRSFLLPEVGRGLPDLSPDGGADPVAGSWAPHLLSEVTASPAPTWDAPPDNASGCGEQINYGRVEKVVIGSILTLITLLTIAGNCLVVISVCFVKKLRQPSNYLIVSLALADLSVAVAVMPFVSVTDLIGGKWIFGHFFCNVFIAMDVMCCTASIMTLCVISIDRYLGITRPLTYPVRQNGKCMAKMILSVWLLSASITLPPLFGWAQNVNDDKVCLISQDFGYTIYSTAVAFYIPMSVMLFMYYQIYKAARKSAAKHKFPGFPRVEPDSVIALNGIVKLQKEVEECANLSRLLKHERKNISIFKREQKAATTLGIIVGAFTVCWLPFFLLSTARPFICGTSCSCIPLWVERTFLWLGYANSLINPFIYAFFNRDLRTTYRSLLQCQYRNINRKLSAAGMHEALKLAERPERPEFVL

MOLECULE: NC(c1ccccc1)c1ccccc1 [C3]
5-HT7 % Inhibition by plate position / %: 0
--
MOLECULE: CS(=O)(=O)c1ccc(OC(F)(F)F)cc1 [B8]
5-HT7 % Inhibition by plate position / %: 6
--
MOLECULE: Oc1ccc(-n2cncn2)cc1 [H5]
5-HT7 % Inhibition by plate position / %: 25
--
MOLECULE: O=c1[nH]ncc2c1oc1ccccc12 [B6]
5-HT7 % Inhibition by plate position / %: 0
--
MOLECULE: c1ccc(-c2ccncc2)cc1 [C2]
5-HT7 % Inhibition by plate position / %: 6

###

Catalogue of %inh 5-HT1A exp_1 readings, one per entry.
biological target: human 5-HT1A receptor (Homo sapiens, UniProt P08908); construct: expressed in transfected cells; test: GPCR radioligand binding assay, [3H]-8-OH-DPAT displacement, HEK293 membranes; conditions: 5-HT1A; replicate exp_1
Sequence (P08908 whole entry): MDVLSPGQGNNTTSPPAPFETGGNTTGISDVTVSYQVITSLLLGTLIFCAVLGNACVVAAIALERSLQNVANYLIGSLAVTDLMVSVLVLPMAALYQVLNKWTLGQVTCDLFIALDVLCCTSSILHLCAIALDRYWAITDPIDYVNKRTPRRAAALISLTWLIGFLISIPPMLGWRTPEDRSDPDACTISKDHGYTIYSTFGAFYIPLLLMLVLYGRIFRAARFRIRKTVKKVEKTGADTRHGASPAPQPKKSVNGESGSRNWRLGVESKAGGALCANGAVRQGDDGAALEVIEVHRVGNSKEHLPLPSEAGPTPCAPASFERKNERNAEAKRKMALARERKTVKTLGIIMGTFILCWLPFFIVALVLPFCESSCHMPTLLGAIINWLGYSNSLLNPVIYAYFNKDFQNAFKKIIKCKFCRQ
PROPERTY LABEL: %inh 5-HT1A exp_1 (%)

COMPOUND: Cc1ccc(C)n1Cc1ccccc1Cl [D6]
MEASURE UNIT: %
READOUT VALUE: 4.33

COMPOUND: Cc1cc(C)c2c(=O)[nH]n(C)c2n1 [F12]
MEASURE UNIT: %
READOUT VALUE: 4.73

COMPOUND: CCn1cnc2ccccc21 [D4]
MEASURE UNIT: %
READOUT VALUE: -16

COMPOUND: Cn1nc(C(F)(F)F)cc1O [H6]
MEASURE UNIT: %
READOUT VALUE: 21

COMPOUND: O=C1CCC(=O)N(c2ccccc2)N1 [H7]
MEASURE UNIT: %
READOUT VALUE: 7

COMPOUND: CCc1ccc(NC2=NCCCS2)cc1 [D2]
MEASURE UNIT: %
READOUT VALUE: 30

COMPOUND: Nc1ccc(-c2ccccc2)cc1C(=O)O [G9]
MEASURE UNIT: %
READOUT VALUE: 13

COMPOUND: O=C1NC(=O)C2(CCc3ccccc32)N1 (centres unmarked) [B7]
MEASURE UNIT: %
READOUT VALUE: -22

COMPOUND: c1ccc2oc(C3CCCNC3)nc2c1 (centres unmarked) [D10]
MEASURE UNIT: %
READOUT VALUE: 77

COMPOUND: c1cnc2c(c1)NCCC2 [E7]
MEASURE UNIT: %
READOUT VALUE: 15

COMPOUND: COc1ccccc1N1CCNCC1 [A10]
MEASURE UNIT: %
READOUT VALUE: 101

COMPOUND: Nc1ccc(SC(F)F)cc1 [D1]
MEASURE UNIT: %
READOUT VALUE: -6.6

COMPOUND: O=C(O)c1ccc(CN2CCOCC2)cc1 [H1]
MEASURE UNIT: %
READOUT VALUE: 11

COMPOUND: Fc1ccc(CC2CCCNC2)cc1 (centres unmarked) [C1]
MEASURE UNIT: %
READOUT VALUE: 23

COMPOUND: Oc1cnc(-c2ccccc2)nc1 [F11]
MEASURE UNIT: %
READOUT VALUE: 14

COMPOUND: O=C(O)c1cccc(Nc2ncccn2)c1 [F5]
MEASURE UNIT: %
READOUT VALUE: 9

COMPOUND: Cc1cc(N)no1 [B11]
MEASURE UNIT: %
READOUT VALUE: -18

COMPOUND: N#CC1CCS(=O)(=O)C1 (centres unmarked) [F2]
MEASURE UNIT: %
READOUT VALUE: 12

COMPOUND: Cn1c(CO)nc2ccccc21 [G2]
MEASURE UNIT: %
READOUT VALUE: 12

COMPOUND: FC1(F)CNCC(F)(F)O1 [H3]
MEASURE UNIT: %
READOUT VALUE: 9

COMPOUND: COc1ccc(C2=CCNCC2)cc1 [G1]
MEASURE UNIT: %
READOUT VALUE: 14

COMPOUND: CC1(C)OC(=O)c2cc(Br)c(O)cc2O1 [C6]
MEASURE UNIT: %
READOUT VALUE: -7.5

COMPOUND: O=C(CN1CCNCC1)c1ccccc1 [E5]
MEASURE UNIT: %
READOUT VALUE: 9.52

COMPOUND: Cc1nccn1Cc1cccc(C#N)c1 [F8]
MEASURE UNIT: %
READOUT VALUE: 7

COMPOUND: O=C(CN1CCCC1)c1ccccc1Cl [G10]
MEASURE UNIT: %
READOUT VALUE: 77

COMPOUND: O=C1CC(CSc2ccc(Cl)cc2)=NN1 [H8]
MEASURE UNIT: %
READOUT VALUE: -4

COMPOUND: c1ccc2sc(N3CCNCC3)nc2c1 [G5]
MEASURE UNIT: %
READOUT VALUE: 78

COMPOUND: Cc1cnc(C(F)(F)F)cn1 [B9]
MEASURE UNIT: %
READOUT VALUE: -7

COMPOUND: O=C(O)CC1CCC(=O)N1 (centres unmarked) [H2]
MEASURE UNIT: %
READOUT VALUE: -9

COMPOUND: O=C(c1ccccc1)N1CCC(CO)CC1 [H9]
MEASURE UNIT: %
READOUT VALUE: 15

COMPOUND: CS(=O)(=O)c1ccc(OC(F)(F)F)cc1 [B8]
MEASURE UNIT: %
READOUT VALUE: -20

COMPOUND: O=C1CNCCN1c1ccccc1 [B2]
MEASURE UNIT: %
READOUT VALUE: 9

COMPOUND: O=C(O)C1CCCN(C(=O)N2CCCC2)C1 (centres unmarked) [G6]
MEASURE UNIT: %
READOUT VALUE: 1

COMPOUND: Brc1ccc(-c2ccon2)cc1 [A9]
MEASURE UNIT: %
READOUT VALUE: 4

COMPOUND: CC(=O)c1ccc2c(c1)CNCC2 [C8]
MEASURE UNIT: %
READOUT VALUE: -22

COMPOUND: O=C1CCN(c2ccncc2)CC1 [G7]
MEASURE UNIT: %
READOUT VALUE: -1.88

COMPOUND: Cc1ccc(CCNc2ccccc2)cn1 [H11]
MEASURE UNIT: %
READOUT VALUE: 11

COMPOUND: Clc1ccc2nnnn2n1 [E6]
MEASURE UNIT: %
READOUT VALUE: 3.18

COMPOUND: CN(C)c1cc(CN)ccn1 [G3]
MEASURE UNIT: %
READOUT VALUE: 13

COMPOUND: O=C1NC2(CCCC2)Nc2ccccc21 [C9]
MEASURE UNIT: %
READOUT VALUE: 4.43

COMPOUND: COc1cccc(NC2=NCCCCC2)c1 [E8]
MEASURE UNIT: %
READOUT VALUE: 11

COMPOUND: O=C1CCCc2occc21 [B3]
MEASURE UNIT: %
READOUT VALUE: -9

COMPOUND: CC(CN)N1CCc2sccc2C1 (centres unmarked) [F9]
MEASURE UNIT: %
READOUT VALUE: 30

COMPOUND: N#Cc1ccc2ncsc2c1 [C12]
MEASURE UNIT: %
READOUT VALUE: 11

COMPOUND: O=c1[nH]c2c(s1)CCC2 [C10]
MEASURE UNIT: %
READOUT VALUE: 2.56

COMPOUND: Oc1nnc(-c2ccccc2)o1 [F7]
MEASURE UNIT: %
READOUT VALUE: 1.6

COMPOUND: c1ccc2c(N3CCNCC3)ccnc2c1 [C4]
MEASURE UNIT: %
READOUT VALUE: 78

COMPOUND: CS(=O)(=O)c1ccc(N2CCNCC2)cc1 [B1]
MEASURE UNIT: %
READOUT VALUE: 8.43

COMPOUND: N[C@H]1c2ccccc2C[C@H]1CO [B5]
MEASURE UNIT: %
READOUT VALUE: -19

COMPOUND: Cc1nc(-c2ccccc2)cs1 [A7]
MEASURE UNIT: %
READOUT VALUE: -13

COMPOUND: O=c1ccc2c([nH]1)CCCC2 [C5]
MEASURE UNIT: %
READOUT VALUE: -18

COMPOUND: COC(=O)c1c(C)nc(C2CC2)[nH]c1=O [F1]
MEASURE UNIT: %
READOUT VALUE: 17

COMPOUND: NC1CCc2ccccc21 (centres unmarked) [B4]
MEASURE UNIT: %
READOUT VALUE: 19

COMPOUND: Cc1cc(-c2ccccc2)n[nH]1 [A8]
MEASURE UNIT: %
READOUT VALUE: 9

COMPOUND: CC1C(=O)NC(=O)N1c1ccc(Cl)cc1 (centres unmarked) [E3]
MEASURE UNIT: %
READOUT VALUE: 5

COMPOUND: CN1CC(=O)NC1=O [B10]
MEASURE UNIT: %
READOUT VALUE: 4

COMPOUND: O=C1CSC(Nc2ccc(F)cc2)=N1 [H10]
MEASURE UNIT: %
READOUT VALUE: 10

COMPOUND: O=C(c1ccncc1)N1CCNCC1 [E2]
MEASURE UNIT: %
READOUT VALUE: 13

COMPOUND: Cc1ccc(-c2ccc(O)cc2)cc1 [D7]
MEASURE UNIT: %
READOUT VALUE: -25
